molecular target: T1, full length recombinant human 2N4R tau (amino acids 1-441) (human, UniProt P10636 1-758); experiment: SPR Biacore SCK, IgG on Protein A, tau analyte
T1 construct: Bought (rPeptide); recombinant, non-phosphorylated; also called recombinant tau
T1 sequence (P10636 other isoform, or with tags, fused parts or gaps limits assumed): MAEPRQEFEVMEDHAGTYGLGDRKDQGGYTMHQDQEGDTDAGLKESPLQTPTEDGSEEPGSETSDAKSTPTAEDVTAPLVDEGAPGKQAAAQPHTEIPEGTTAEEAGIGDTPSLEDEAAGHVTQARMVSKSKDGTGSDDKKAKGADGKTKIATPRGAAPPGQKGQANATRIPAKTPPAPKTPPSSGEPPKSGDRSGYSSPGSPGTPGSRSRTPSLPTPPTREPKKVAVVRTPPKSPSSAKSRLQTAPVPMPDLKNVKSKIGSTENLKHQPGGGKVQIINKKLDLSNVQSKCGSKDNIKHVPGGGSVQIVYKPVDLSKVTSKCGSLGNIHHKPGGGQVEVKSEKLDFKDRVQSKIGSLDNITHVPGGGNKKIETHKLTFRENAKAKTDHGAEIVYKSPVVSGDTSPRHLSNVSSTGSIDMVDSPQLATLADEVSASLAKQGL
Measurement kind: kon (M⁻¹ s⁻¹)
Number in M⁻¹ s⁻¹, nothing else.

For Clone 26 (VH4Vκ1), humanised variant of clone #28, human IgG1 (antibody, V domains shown, also called VH4VK1) VH: QVQLQESGPGLVKPSETLSLTCTVSGFSLNNYDMSWVRQAPGKGLEWIGTVSTTYRRYYASWAKGRFTISKDTSSTTVDLQMTSLTAEDTATYFCAASGIWGRGTLVTVSS VL: AQVLTQSTSPLSASVGDRVTITCQSSQRVYSNYLAWYQQKPGQPPKRLIFLASTLESGVPSRFSGSGSGTEFTLTISSLQCDDFATYYCAGTYTGSIWAFGGGTEVVIK the binder record lists kon as 58300

For Clone 18 (VH2Vκ1), humanised variant of clone #28, human IgG1 (antibody, V domains shown, also called VH2VK1) VH: QSLQESGPGLVKPSETLSLTCTVSGFSLNNYDMSWVRQAPGKGLEWIGTVSTTYRRYYASWAKGRFTISKTSSTTVDLQMTSLTAEDTATYFCAASGIWGRGTLVTVSS VL: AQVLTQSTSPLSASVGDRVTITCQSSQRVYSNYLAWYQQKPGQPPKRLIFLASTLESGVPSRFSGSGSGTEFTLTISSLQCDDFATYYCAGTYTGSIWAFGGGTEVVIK the binder record lists kon as 67100

Note: attention shifts to another entry.
For Clone 34 (VH6Vκ1), humanised variant of clone #28, human IgG1 (antibody, V domains shown, also called VH6VK1) VH: QVQLQESGPGLVKPSETLSLTCTVSGFSLNNYDMSWVRQAPGKGLEWIGTVSTTYRRYYADSVKGRFTISRDNSKNTLDLQMTSLTAEDTATYFCAASGIWGRGTLVTVSS VL: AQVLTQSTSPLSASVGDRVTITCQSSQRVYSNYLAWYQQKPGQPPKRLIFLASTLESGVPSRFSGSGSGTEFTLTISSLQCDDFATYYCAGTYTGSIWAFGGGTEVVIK the binder record lists kon as 37300

These measurements were taken from patent US20220265819A1.
